Taken from PubChem BioAssay (NCI).

In this section, each of the molecules is paired with its reported TGI.
Tested on: PC-3 prostate
Assay: NCI tumour cell line growth inhibition, 48 h
measureName: TGI

{"molecule": "CC(=O)OC1Oc2ccccc2-c2oc(=O)c(-c3cc(=O)oc4cc(O)ccc34)cc21 (stereo not given)", "measureName": "TGI", "result": "55.6 µM"}
{"molecule": "COc1ccc(C(=O)Sc2c(-c3ccccc3)c(=O)n(-c3ccccc3)c(=S)n2-c2ccccc2)cc1", "measureName": "TGI", "result": "> 100 µM"}
{"molecule": "CCCCCN=Cc1c(O)c(O)c(C(C)C)c2cc(C)c(-c3c(C)cc4c(C(C)C)c(O)c(O)c(C=NCCCCC)c4c3O)c(O)c12", "measureName": "TGI", "result": "41.1 µM"}
{"molecule": "Clc1ccc2c(NCCCNc3nccc(Nc4ccc(Br)cc4)n3)ccnc2c1", "measureName": "TGI", "result": "3.56 µM"}
{"molecule": "COc1ccc(N(C)c2ncnc3occ(C)c23)cc1", "measureName": "TGI", "result": "> 51.8 µM"}

----------
System: HS 578T breast
Assay: NCI tumour cell line growth inhibition, 48 h
In this section, each of the compounds is paired with its reported TGI.

{"compound": "CCCCCN=Cc1c(O)c(O)c(C(C)C)c2cc(C)c(-c3c(C)cc4c(C(C)C)c(O)c(O)c(C=NCCCCC)c4c3O)c(O)c12", "systemUnderTest": "HS 578T breast", "TGI": "> 100 µM"}
{"compound": "O=S(=O)([O-])c1ccc2c(c1)-c1nc-2nc2[n-]c(nc3nc(nc4[n-]c(n1)c1ccc(S(=O)(=O)[O-])cc41)-c1cc(S(=O)(=O)[O-])ccc1-3)c1ccc(S(=O)(=O)[O-])cc21.[Cu+2].[Na+]", "systemUnderTest": "HS 578T breast", "TGI": "> 100 µM"}
{"compound": "CC(C)(C)C(=O)OCC1CCC[N+]2(C)CCCCC12 (centres undefined)", "systemUnderTest": "HS 578T breast", "TGI": "> 100 µM"}
{"compound": "Nc1nc(N)c2[nH]c(CNc3ccc(C(=O)O)cc3)nc2n1", "systemUnderTest": "HS 578T breast", "TGI": "> 100 µM"}
{"compound": "COC(C)(C)C1=CCC(C)CC1 (centres undefined)", "systemUnderTest": "HS 578T breast", "TGI": "> 100 µM"}
{"compound": "Cc1cccc(-c2nc3ccc([N+](=O)[O-])cc3c(=O)o2)c1", "systemUnderTest": "HS 578T breast", "TGI": "97.9 µM"}
{"compound": "Cc1ccc2c(n1)C(=O)c1[nH]c3ccccc3c1C2=O", "systemUnderTest": "HS 578T breast", "TGI": "7.16 µM"}
{"compound": "O=C(O)/C=N\\Nc1nc2ccccc2[nH]1", "systemUnderTest": "HS 578T breast", "TGI": "> 100 µM"}
{"compound": "CC(C)(C)OC(=O)NCC(O)CNC(=O)OC(C)(C)C", "systemUnderTest": "HS 578T breast", "TGI": "> 100 µM"}
{"compound": "O=C(CC(=O)Nc1cccc(C(=O)O)c1)Nc1cccc(C(=O)O)c1", "systemUnderTest": "HS 578T breast", "TGI": "> 100 µM"}
{"compound": "COc1nc(C(=O)NNC(=O)c2nc(OC)c3ccccc3c2-c2ccccc2)c(-c2ccccc2)c2ccccc12", "systemUnderTest": "HS 578T breast", "TGI": "> 100 µM"}
{"compound": "CC1(CCCO)CCCCCC(C)(CCCO)C1=O (centres undefined)", "systemUnderTest": "HS 578T breast", "TGI": "> 100 µM"}
{"compound": "O=[N+]([O-])c1ccccc1S(=O)(=O)c1cc(Cl)cc2c1NCCC2", "systemUnderTest": "HS 578T breast", "TGI": "> 100 µM"}
{"compound": "NC(CCCCP(=O)(O)O)C(=O)O (centres undefined)", "systemUnderTest": "HS 578T breast", "TGI": "> 100 µM"}
{"compound": "C/C(=C\\CCc1ccoc1)CC/C=C(\\C)CCCC1=CC(=O)OC1", "systemUnderTest": "HS 578T breast", "TGI": "36 µM"}
{"compound": "C=C(C)[C@@]12OC3(/C=C/C=C/CCCCC)O[C@@H]1[C@@H]1[C@@H]4O[C@]4(CO)[C@@H](O)[C@]4(O)C(=O)C(C)=C[C@H]4[C@@]1(O3)[C@H](C)[C@H]2OC(=O)c1ccccc1", "systemUnderTest": "HS 578T breast", "TGI": "2.21 µM"}
{"compound": "C=C1CC(c2ccc(OCCCN3C(=O)c4ccccc4C3=O)c(OC)c2)OC1=O (centres undefined)", "systemUnderTest": "HS 578T breast", "TGI": "32.4 µM"}
{"compound": "CC/C(=C(/c1ccc(OCCN(C)C)cc1)c1ccc(OC(=O)CCCCC(=O)c2c(C)[nH]c(/C=C3\\N=C(c4ccc[nH]4)C=C3OC)c2C)cc1)c1ccccc1", "systemUnderTest": "HS 578T breast", "TGI": "47.6 µM"}
{"compound": "CC(C)c1ccc(Nc2ccc3c(OCCCN4CCN(C)CC4)cccc3n2)cc1", "systemUnderTest": "HS 578T breast", "TGI": "40.3 µM"}
